target: T1, TNF-α (UniProt P01375 77-233, limits assumed); experiment: competition ELISA: sample vs plate-bound TNFRI190 for TNF-α, from IC50, relative to wild-type TNFRI126
T1 construct: also called tumor necrosis factor; ligand
T1 sequence (P01375 77-233 limits assumed): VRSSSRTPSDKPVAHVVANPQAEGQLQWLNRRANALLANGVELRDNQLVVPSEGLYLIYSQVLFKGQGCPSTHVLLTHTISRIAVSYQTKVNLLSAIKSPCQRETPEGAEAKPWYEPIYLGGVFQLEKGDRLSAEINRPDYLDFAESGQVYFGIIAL
quantity-kind: Relative Affinity for Ligand (%)

[[record]]
binder = "TNFRI126-S63 (receptor, Met-TNFRI126 superlead mutant made in E. coli) MDSVCPQGKYIHPQNNSICCTKCHKGTYVYNDCPGPGQDTDCRECESGSFTAMENFLPGCLSCSKCRKEMGQVEISSCTVDRDTVCGCRKNQYRHYWSENLFQCFNCSLCLNGTVHLSCQENQNTVC"
quantity_kind = "Relative Affinity for Ligand (%)"
observed_measurement = 486

[[record]]
binder = "TNFRI126-S46 (receptor, Met-TNFRI126 superlead mutant made in E. coli) MDSVCPQGKYIHPQNNSICCTKCHKGTYVYNDCPGPGQDTDCRECESGSFTAIENFLPGCLSCSKCRKEMGQVEISSCTVDRDTVCGCRKNQYRHYWSENLFQCFNCSLCLNGTVHLSCQEKQNTVC"
quantity_kind = "Relative Affinity for Ligand (%)"
observed_measurement = 412

